// provenance: PubChem BioAssay (NCI)

Test system: OVCAR-8 ovarian
assay-remarks: NCI-60 one-dose screen, 48 h (100 = growth as untreated, 0 = no growth, -100 = all killed)
measurement-context: 10 µM
About 83,000 compounds went through this panel and 20% of them were active in at least one assay; those are over-represented in the sample as a whole.
Where growth equals or exceeds 30%, the correct label is true (1); where it does not, the label is false (0).

Enquiry: Could you tell me if the measured growth of COc1cc2oc(-c3cccc(C(=O)Nc4ccc(Cl)cc4)c3)cc(=O)c2c(OCCNC(=O)CNC(=O)OC(C)(C)C)c1OC reaches 30% or more?
Return: true (1)

Enquiry: Entry to check: CC(C)(C)c1ccc(NCc2cn(-c3ccc(C(=O)O)cc3)nc2-c2ccc(C#N)cc2)cc1
Return: false (0)

Enquiry: Entry to check: COc1cc(OC(F)(F)F)ccc1C(=O)Nc1sc2c(c1C#N)CCC(=O)C2
Return: true (1)

Enquiry: Entry to check: OCCCNc1oc(-c2ccccc2)nc1[P+](c1ccccc1)(c1ccccc1)c1ccccc1
Return: false (0)

Enquiry: Entry to check: Cc1ccc(CSc2nc(-c3ccc(F)cc3)c(C#N)c(=O)[nH]2)cc1
Return: true (1)
